Target: 17β-Hydroxysteroid Dehydrogenase Type 2 Enzyme (17β-HSD2) (Homo sapiens, UniProt P37059)
Construct: made in house; host or cells: Sf-9 insect cells (baculovirus)
Sequence (P37059 whole entry): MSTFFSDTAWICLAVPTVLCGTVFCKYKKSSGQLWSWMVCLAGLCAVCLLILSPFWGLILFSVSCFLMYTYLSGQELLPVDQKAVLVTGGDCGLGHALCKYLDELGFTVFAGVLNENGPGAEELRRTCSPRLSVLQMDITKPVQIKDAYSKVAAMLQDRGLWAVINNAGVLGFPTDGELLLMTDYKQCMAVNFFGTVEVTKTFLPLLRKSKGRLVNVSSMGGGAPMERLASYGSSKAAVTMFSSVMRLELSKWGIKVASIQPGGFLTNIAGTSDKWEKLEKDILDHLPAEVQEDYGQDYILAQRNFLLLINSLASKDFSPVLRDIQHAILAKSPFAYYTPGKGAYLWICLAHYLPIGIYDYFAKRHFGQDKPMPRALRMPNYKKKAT
Assay: Inhibition of the 17β-hydroxysteroid dehydrogenase type 2 enzyme, 3H-testosterone conversion
Type: biochemical
Details: inhibitor at 10 μM
Procedure: Inhibition of the 17β-Hydroxysteroid Dehydrogenase Type 2 Enzyme Recombinant human 173-HSD2 protein (GenBank Accession No. NM_002153.3) produced in Sf-9 insect cells with baculovirus was used for screening. Recombinant protein (105 nM/4.5 μg/ml) was incubated in 20 mM KH2PO4 pH 8.5, 1 mM EDTA, complete protease inhibitor cocktail, 1 mM NAD with 56.25 nM testosterone (including ^3H-labelled testosterone) for 30 min at RT, in the presence of the potential inhibitor at 10 μM concentration. […]
Observed Property: inhibition at 10 µM (%)

Worked examples follow.
// output inhibition at 10 µM; input CCOC1CCN(C(=O)N2CCC(=C(C#N)c3cccc(Cl)c3)CC2)CC1 ; system 17β-Hydroxysteroid Dehydrogenase Type 2 Enzyme (17β-HSD2) (Homo sapiens, UniProt P37059)
5

// output inhibition at 10 µM; input N#CC(=C1CCN(C(=O)N2CCn3cncc3C2)CC1)c1cccc2cn[nH]c12 ; system 17β-Hydroxysteroid Dehydrogenase Type 2 Enzyme (17β-HSD2) (Homo sapiens, UniProt P37059)
26

// output inhibition at 10 µM; input COC[C@@H]1CCCN1C(=O)N1CCC(=C(C#N)c2ccc(F)cc2)CC1 ; system 17β-Hydroxysteroid Dehydrogenase Type 2 Enzyme (17β-HSD2) (Homo sapiens, UniProt P37059)
8

// output inhibition at 10 µM; input CN(C(=O)N1CCC(=C(C#N)c2ccc(Cl)cc2)CC1)C1COC1 ; system 17β-Hydroxysteroid Dehydrogenase Type 2 Enzyme (17β-HSD2) (Homo sapiens, UniProt P37059)
-2

// output inhibition at 10 µM; input N#CC(=C1CCN(C(=O)N2CCc3nocc3C2)CC1)c1ccc(Cl)cn1 ; system 17β-Hydroxysteroid Dehydrogenase Type 2 Enzyme (17β-HSD2) (Homo sapiens, UniProt P37059)
7

I. N#CC(=C1CCN(C(=O)N2CCn3cncc3C2)CC1)c1cc(F)cc(F)c1
II. N#CC(=C1CCN(C(=O)N2CCc3[nH]ncc3C2)CC1)c1cccc2cn[nH]c12
Please state the entry with greater inhibition at 10 µM among I and II . Kindly give the label for the entry you pick.
II
(II: 29%, I: 13%)

---

Target: Recombinant human AKR1C3 (17β-HSD5) protein (Homo sapiens, UniProt P42330)
Construct: made in house; host or cells: E. coli
Sequence (P42330 1-323): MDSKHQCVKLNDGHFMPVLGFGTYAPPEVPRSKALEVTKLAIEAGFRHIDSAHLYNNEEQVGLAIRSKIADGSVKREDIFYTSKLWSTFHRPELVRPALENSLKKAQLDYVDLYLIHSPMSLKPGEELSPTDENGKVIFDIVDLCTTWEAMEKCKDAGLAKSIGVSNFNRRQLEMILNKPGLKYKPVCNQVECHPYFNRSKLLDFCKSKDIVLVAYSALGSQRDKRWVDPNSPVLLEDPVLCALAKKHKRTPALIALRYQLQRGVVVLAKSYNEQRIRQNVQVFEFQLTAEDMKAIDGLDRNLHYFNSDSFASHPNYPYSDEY
Assay: Inhibition of AKR1C3 (17β-hydroxysteroid dehydrogenase type 5) enzyme, fluorescence assay
Type: biochemical
Conditions: inhibitor at 500 nM
Observed Property: inhibition at 0.5 µM (%)

// output inhibition at 0.5 µM; input N#CC(=C1CCN(C(=O)N2CCC(CO)CC2)CC1)c1ccc(Cl)cn1 [Compound 65] ; system Recombinant human AKR1C3 (17β-HSD5) protein (Homo sapiens, UniProt P42330)
97

// output inhibition at 0.5 µM; input N#CC(=C1CCN(C(=O)N2C[C@@H]3CC[C@@H]2C3)CC1)c1ccc(F)c(F)c1 [Compound 34] ; system Recombinant human AKR1C3 (17β-HSD5) protein (Homo sapiens, UniProt P42330)
95

// output inhibition at 0.5 µM; input CC(=O)N1CCN(C(=O)N2CCC(=C(C#N)c3ccc(F)cc3)CC2)CC1 [Compound 143] ; system Recombinant human AKR1C3 (17β-HSD5) protein (Homo sapiens, UniProt P42330)
93

// output inhibition at 0.5 µM; input N#CC(=C1CCN(C(=O)N2C[C@@H]3CC[C@@H]2C3)CC1)c1ccc(F)cc1F [Compound 111] ; system Recombinant human AKR1C3 (17β-HSD5) protein (Homo sapiens, UniProt P42330)
95

// output inhibition at 0.5 µM; input N#CC(=C1CCN(C(=O)N2CCn3ncnc3C2)CC1)c1ccc(OC(F)(F)F)cc1 [Compound 167] ; system Recombinant human AKR1C3 (17β-HSD5) protein (Homo sapiens, UniProt P42330)
97

// output inhibition at 0.5 µM; input N#CC(=C1CCN(C(=O)N2CC[C@H](O)C2)CC1)c1ccc(F)cc1 [Compound 9] ; system Recombinant human AKR1C3 (17β-HSD5) protein (Homo sapiens, UniProt P42330)
89

// output inhibition at 0.5 µM; input N#CC(=C1CCN(C(=O)N2CCCC(O)CC2)CC1)c1ccc(F)cc1 (centres unmarked) [Compound 107] ; system Recombinant human AKR1C3 (17β-HSD5) protein (Homo sapiens, UniProt P42330)
92

// output inhibition at 0.5 µM; input CCN(CC)C(=O)N1CCC(=C(C#N)c2ccc(F)cn2)CC1 [Compound 172] ; system Recombinant human AKR1C3 (17β-HSD5) protein (Homo sapiens, UniProt P42330)
95

---

biological target: Recombinant human AKR1C3 (17β-HSD5) protein (Homo sapiens, UniProt P42330); construct: made in house; host or cells: E. coli; experiment: Inhibition of AKR1C3 (17β-hydroxysteroid dehydrogenase type 5) enzyme, fluorescence assay; assay type: biochemical; details: inhibitor at 500 nM
Observed Property: inhibition at 0.5 µM (%)

Return inhibition at 0.5 µM (reported value) for this compound: CC(=O)N1CCN(C(=O)N2CCC(=C(C#N)c3cccc(Cl)c3)CC2)CC1 [Compound 96]
95

Return inhibition at 0.5 µM (reported value) for this compound: N#CC(=C1CCN(C(=O)N2CCCCC2)CC1)c1ccc(F)cc1 [Compound 3]
95

Return inhibition at 0.5 µM (reported value) for this compound: N#CC(=C1CCN(C(=O)N2CCc3sccc3C2)CC1)c1cc(F)cc(F)c1 [Compound 51]
96

Return inhibition at 0.5 µM (reported value) for this compound: N#CC(=C1CCN(C(=O)N2CCC(CO)CC2)CC1)c1cc(F)cc(F)c1 [Compound 50]
97

Return inhibition at 0.5 µM (reported value) for this compound: C[C@@H]1CCCCN1C(=O)N1CCC(=C(C#N)c2ccc(F)cc2)CC1 [Compound 110]
96

Return inhibition at 0.5 µM (reported value) for this compound: N#CC(=C1CCN(C(=O)N2CCn3nncc3C2)CC1)c1ccc(OC(F)(F)F)cc1 [Compound 162]
98

Return inhibition at 0.5 µM (reported value) for this compound: COC[C@@H]1CCCN1C(=O)N1CCC(=C(C#N)c2ccc(F)cc2)CC1 [Compound 8]
98

Return inhibition at 0.5 µM (reported value) for this compound: N#CC(=C1CCN(C(=O)N2CCc3nocc3C2)CC1)c1ccc(Cl)cc1 [Compound 141]
98

Return inhibition at 0.5 µM (reported value) for this compound: COC1CCN(C(=O)N2CCC(=C(C#N)c3ccc(F)cc3F)CC2)CC1 [Compound 91]
99

---

molecular target: 17β-Hydroxysteroid Dehydrogenase Type 2 Enzyme (17β-HSD2) (Homo sapiens, UniProt P37059); construct: made in house; host or cells: Sf-9 insect cells (baculovirus); assay: Inhibition of the 17β-hydroxysteroid dehydrogenase type 2 enzyme, 3H-testosterone conversion; format: biochemical; conditions: inhibitor at 10 μM
Observed Property: inhibition at 10 µM (%)

Worked examples follow.
Return inhibition at 10 µM (reported value) for this molecule: N#CC(=C1CCN(C(=O)N2CCc3sccc3C2)CC1)c1ccc(F)c(F)c1 [Compound 35]
28

Return inhibition at 10 µM (reported value) for this molecule: N#CC(=C1CCN(C(=O)N2CCn3cncc3C2)CC1)c1ccc(Cl)cc1 [Compound 46]
11

Return inhibition at 10 µM (reported value) for this molecule: N#CC(=C1CCN(C(=O)N2CCc3sccc3C2)CC1)c1ccc(Cl)cn1 [Compound 66]
12

Return inhibition at 10 µM (reported value) for this molecule: N#CC(=C1CCN(C(=O)N2C3CCC2COC3)CC1)c1ccc(F)c(F)c1 [Compound 31]
9

1. N#CC(=C1CCN(C(=O)N2CCc3[nH]ncc3C2)CC1)c1ccc(Cl)cn1 [Compound 67]
2. N#CC(=C1CCN(C(=O)N2CCc3cccnc32)CC1)c1ccc(F)cc1 [Compound 30]
3. N#CC(=C1CCN(C(=O)N2CCc3[nH]ncc3C2)CC1)c1ccc(Cl)s1 [Compound 120]
4. N#CC(=C1CCN(C(=O)N2CCn3ncnc3C2)CC1)c1ccc(OC(F)(F)F)cc1 [Compound 167]
Please put the entries in order of rising inhibition at 10 µM. In your reply, arrange the labels in the requested order.
4, 1, 2, 3
(4: -1%, 1: 9%, 2: 14%, 3: 20%)

The reported measurements were obtained from patent US12637471B2.
